Recorded SEAP-His: absorbance at 450 nm, percentage with respect to hEphA4-SEAP-His as 100% by entry
Molecular target: SEAP-His (Homo sapiens, UniProt P05187)
Sequence (P05187 23-511 limits assumed): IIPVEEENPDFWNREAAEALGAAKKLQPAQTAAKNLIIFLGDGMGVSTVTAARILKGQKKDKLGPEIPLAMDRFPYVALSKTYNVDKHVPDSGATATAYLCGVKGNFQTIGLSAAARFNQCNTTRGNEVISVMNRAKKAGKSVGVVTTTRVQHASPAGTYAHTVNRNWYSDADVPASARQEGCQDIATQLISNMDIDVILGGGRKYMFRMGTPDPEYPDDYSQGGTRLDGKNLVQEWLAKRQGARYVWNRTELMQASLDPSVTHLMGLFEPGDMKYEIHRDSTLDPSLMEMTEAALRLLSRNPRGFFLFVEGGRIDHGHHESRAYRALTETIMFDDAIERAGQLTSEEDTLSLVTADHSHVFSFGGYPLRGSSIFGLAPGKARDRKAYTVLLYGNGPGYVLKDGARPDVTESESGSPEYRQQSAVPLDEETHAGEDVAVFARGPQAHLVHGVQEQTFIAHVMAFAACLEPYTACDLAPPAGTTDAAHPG
Test: Selectivity ELISA of humanized antibodies for human Eph receptor
Assay type: binding
Settings: coated protein 1 nM
The response must be a number in % with no trailing unit.

90 (antibody, V domains shown, constant regions without entry; synthetic humanized antibody light chain variable region sequence; synthetic humanized antibody heavy chain variable region sequence) VL: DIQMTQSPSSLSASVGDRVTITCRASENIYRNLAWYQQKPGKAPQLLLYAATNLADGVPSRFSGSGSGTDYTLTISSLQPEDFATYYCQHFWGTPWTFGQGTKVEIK VH: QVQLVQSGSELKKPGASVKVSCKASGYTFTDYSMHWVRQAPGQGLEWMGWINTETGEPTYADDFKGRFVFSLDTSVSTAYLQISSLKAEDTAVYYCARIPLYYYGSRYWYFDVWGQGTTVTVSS	5.2

API: the following record is the query input.
(Q) Form field: reported SEAP-His: absorbance at 450 nm, percentage with respect to hEphA4-SEAP-His as 100% of 71 (antibody, V domains shown, synthetic humanized antibody heavy chain variable region sequence; synthetic humanized antibody light chain variable region sequence) VH: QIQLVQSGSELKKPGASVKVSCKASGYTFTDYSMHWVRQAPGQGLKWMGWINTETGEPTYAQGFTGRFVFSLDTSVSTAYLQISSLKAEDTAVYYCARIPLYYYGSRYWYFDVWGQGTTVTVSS VL: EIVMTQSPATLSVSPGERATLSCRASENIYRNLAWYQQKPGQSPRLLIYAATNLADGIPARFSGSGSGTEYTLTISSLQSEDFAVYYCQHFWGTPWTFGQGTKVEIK
(A) 5.6

Values were extracted from patent US10428140B2.
